- TESTED SYSTEM: human α2β3γ2 GABAA receptor (Homo sapiens, UniProt P18507+P47869)
- Construct: expressed in transfected cells; host or cells: Xenopus laevis oocytes injected with capped cRNA (α:β:γ 1:1:1)
- Sequence (P47869 29-451): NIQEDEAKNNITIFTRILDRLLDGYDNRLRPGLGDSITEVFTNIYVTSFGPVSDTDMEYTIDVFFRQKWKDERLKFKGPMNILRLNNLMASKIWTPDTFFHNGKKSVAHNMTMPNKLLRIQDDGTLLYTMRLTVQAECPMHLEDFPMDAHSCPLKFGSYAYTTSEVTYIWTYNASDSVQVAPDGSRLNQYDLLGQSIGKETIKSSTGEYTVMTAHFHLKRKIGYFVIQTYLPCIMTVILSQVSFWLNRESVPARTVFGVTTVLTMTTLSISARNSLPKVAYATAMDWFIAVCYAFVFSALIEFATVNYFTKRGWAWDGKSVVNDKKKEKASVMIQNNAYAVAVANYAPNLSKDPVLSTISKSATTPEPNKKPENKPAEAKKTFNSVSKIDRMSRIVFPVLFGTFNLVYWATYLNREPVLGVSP
- Sequence (P18507 40-475): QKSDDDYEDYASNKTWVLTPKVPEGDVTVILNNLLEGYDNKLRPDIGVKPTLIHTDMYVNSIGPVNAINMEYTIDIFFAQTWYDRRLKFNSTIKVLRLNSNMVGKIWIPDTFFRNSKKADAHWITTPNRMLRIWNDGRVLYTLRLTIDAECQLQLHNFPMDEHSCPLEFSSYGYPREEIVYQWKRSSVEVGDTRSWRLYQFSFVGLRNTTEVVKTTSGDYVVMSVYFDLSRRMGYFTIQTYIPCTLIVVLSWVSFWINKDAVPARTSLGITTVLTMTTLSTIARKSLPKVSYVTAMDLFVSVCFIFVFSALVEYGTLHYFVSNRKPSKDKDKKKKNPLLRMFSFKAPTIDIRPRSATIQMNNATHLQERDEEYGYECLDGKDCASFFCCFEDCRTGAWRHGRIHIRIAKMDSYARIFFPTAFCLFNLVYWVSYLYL
- Sequence (P28472 26-473 partner): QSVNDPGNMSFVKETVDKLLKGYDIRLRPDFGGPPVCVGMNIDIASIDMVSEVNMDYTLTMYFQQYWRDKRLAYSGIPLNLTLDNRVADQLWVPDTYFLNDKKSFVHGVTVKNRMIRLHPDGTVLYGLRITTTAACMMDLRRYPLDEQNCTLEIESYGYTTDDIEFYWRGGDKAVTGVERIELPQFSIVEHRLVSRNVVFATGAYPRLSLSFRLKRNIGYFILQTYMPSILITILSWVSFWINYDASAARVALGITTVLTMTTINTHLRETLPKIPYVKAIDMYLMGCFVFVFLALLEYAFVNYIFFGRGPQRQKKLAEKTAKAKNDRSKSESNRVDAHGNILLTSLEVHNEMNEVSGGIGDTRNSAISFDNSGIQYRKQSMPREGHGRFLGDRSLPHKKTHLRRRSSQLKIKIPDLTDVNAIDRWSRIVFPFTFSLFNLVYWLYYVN
- METHOD: Two-electrode voltage-clamp in Xenopus oocytes, potentiation of GABA EC10 current, GABAA2
- Format: cell-based
- PARTICULARS: percentage potentiation of GABA EC10 current divided by that of diazepam control
MEASUREMENT KIND: Relative Potentiation for GABAA2
Keep it simple and answer with nothing but the number.

Input: Which Relative Potentiation for GABAA2 is listed for CCCNC(=O)c1nnc2c(-c3ccccc3C(F)(F)F)cccc2c1N ?
Output: 0.063

Input: Entry CCCNC(=O)c1nnc2c(-c3cnc4ccccc4c3)cccc2c1N please
Output: 0.11

Input: Entry CCCNC(=O)c1nnc2c(-c3cc(F)ccc3F)cccc2c1N please
Output: 0.29

Input: Entry CCNC(=O)c1nnc2c(-c3ccc(OC)cc3OC)cccc2c1N please
Output: 0.104

Input: Entry CCCNC(=O)c1nnc2c(-c3cccc(C(=O)O)c3)cccc2c1N please
Output: 0.08

Input: Entry CCCNC(=O)c1nnc2c(-c3ccc4ccccc4c3)cccc2c1N [drawing 381] please
Output: 0.09

Input: Entry CCCNC(=O)c1nnc2c(-c3ccc(OC)nc3)cccc2c1N please
Output: 0.16

Input: Entry CCCNC(=O)c1nnc2c(-c3ccc(N(C)C)cc3)cccc2c1N please
Output: 0.18

Input: Entry CCCNC(=O)c1nnc2c(-c3ccc(OC)c(OC)c3OC)cccc2c1N please
Output: 0.33

Input: Entry CCCNC(=O)c1nnc2c(-c3ccc(OC)cc3OC)cccc2c1N please
Output: 0.15

Input: Entry CCCNC(=O)c1nnc2c(-c3cc(Cl)cc(Cl)c3)cccc2c1N please
Output: 0.48

Input: Entry CCCNC(=O)c1nnc2c(-c3ccc(OC)c(F)c3)c(F)ccc2c1N please
Output: 0.16

Input: Entry CCCNC(=O)c1nnc2c(-c3cccc(OC)c3F)c(F)ccc2c1N please
Output: 0.23

Input: Entry CCNC(=O)c1nnc2c(-c3cnc(OC)c(F)c3)cccc2c1N please
Output: 0.223

Input: Entry CCCNC(=O)c1nnc2c(-c3ccc(F)cc3F)cccc2c1N please
Output: 0.12

Input: Entry CCCNC(=O)c1nnc2c(-c3cc(C)ccc3C)c(Cl)ccc2c1N please
Output: 0.22

Input: Entry CCCNC(=O)c1nnc2c(-c3cc(C)ccc3OC)c(F)ccc2c1N please
Output: 0.37

Input: Entry CCCNC(=O)c1nnc2c(-c3ccncc3)cccc2c1N please
Output: 0.1

Input: Entry CCCNC(=O)c1nnc2c(-c3cccc(Cl)c3Cl)cccc2c1N please
Output: 0.053

Input: Entry CCCNC(=O)c1nnc2c(-c3cccc(N(C)C)c3)cccc2c1N please
Output: 0.19

Input: Entry CCCNC(=O)c1nnc2c(-c3cncc(C(=O)N4CCC4)c3)cccc2c1N please
Output: −0.033

Input: Entry CCCNC(=O)c1nnc2c(-c3ccc(OC)cc3)cccc2c1N please
Output: 0.06

Input: Entry CCCNC(=O)c1nnc2c(-c3cccc(F)c3F)cccc2c1N please
Output: 0.17
